Tested on: MCF7
measurement.description: Cytotoxicity against human MCF7 cells after 48 hrs by MTT assay
Assay type: functional, cell-based
run.parameters: MCF7, 48 h
measurement.name: pIC50
The value called pIC50 is obtained by taking minus log10 of the concentration in mol/L.

INSERT INTO assay_data (compound, study_system, measurement_name, measurement) VALUES
  ('COc1ccc(C(=O)SC(CC=C(C)C)c2cc(OC)c3c(c2OC)/C(=N/O)C=C/C3=N\O)cc1 (stereo not given)', 'MCF7', 'pIC50', 4.77);

Ask: Using the record for CCCCCCCCCCSC(CC=C(C)C)c1cc(OC)c2c(c1OC)/C(=N/O)C=C/C2=N\O (stereo not given) , report its pIC50.
Result: 4.32

Ask: Try this compound too: CCCCSC(CC=C(C)C)c1cc(OC)c2c(c1OC)/C(=N/O)C=C/C2=N\O (stereo not given)
Result: 4.44

Ask: Try this compound too: COc1cc([C@@H](CC=C(C)C)SC(=O)c2ccccc2)c(OC)c2c1/C(=N/O)C=C/C2=N\O
Result: 4.59

Ask: Try this compound too: COc1cc(C(CC=C(C)C)SC(C)=O)c(OC)c2c1/C(=N/O)C=C/C2=N\O (stereo not given)
Result: 4.63

* * *

Measured IC50, listed per entry for reference.
Tested on: MCF7
measurement.description: Cytotoxicity against human MCF7 cells after 48 hrs by MTT assay
Assay type: functional, cell-based
run.parameters: MCF7, 48 h
Your answer is read as µM, so omit the unit and give the number.

Here is how some compounds turned out for IC50.
INSERT INTO measurements (compound, measurement) VALUES
  ('CCCCCCCCCSC(CC=C(C)C)c1cc(OC)c2c(c1OC)/C(=N/O)C=C/C2=N\O (stereo not drawn)', 37.8),
  ('CCSC(CC=C(C)C)c1cc(OC)c2c(c1OC)/C(=N/O)C=C/C2=N\O (stereo not drawn)', 44.2),
  ('CCC(=O)SC(CC=C(C)C)c1cc(OC)c2c(c1OC)/C(=N/O)C=C/C2=N\O (stereo not drawn)', 26.1),
  ('COc1cc([C@H](CC=C(C)C)SC(=O)c2ccccc2)c(OC)c2c1/C(=N/O)C=C/C2=N\O', 18.1),
  ('CCCCCC(=O)SC(CC=C(C)C)c1cc(OC)c2c(c1OC)/C(=N/O)C=C/C2=N\O (stereo not drawn)', 45.7);

Ask: Please state recorded IC50 (tested on MCF7) of COc1cc(C(CC=C(C)C)SC(=O)c2ccccc2Cl)c(OC)c2c1/C(=N/O)C=C/C2=N\O (stereo not drawn)
Result: 19.2

Ask: Try this compound too: COc1cc(C(CC=C(C)C)SC(=O)c2ccc(F)cc2)c(OC)c2c1/C(=N/O)C=C/C2=N\O (stereo not drawn)
Result: 20.5

Ask: Try this compound too: COc1ccc(C(=O)SC(CC=C(C)C)c2cc(OC)c3c(c2OC)/C(=N/O)C=C/C3=N\O)cc1OC (stereo not drawn)
Result: 14.9

* * *

Test system: Bel-7402
measurement.description: Cytotoxicity against human Bel7402 cells after 48 hrs by MTT assay
Type: functional, cell-based
run.parameters: Bel-7402, 48 h
measurement.name: IC50 (µM)
Your answer is read as µM, so omit the unit and give the number.

Here is how some compounds turned out for IC50.
INSERT INTO results (compound, measurement_name, measurement) VALUES
  ('COc1cc(C(CC=C(C)C)SC(=O)CC(C)C)c(OC)c2c1/C(=N/O)C=C/C2=N\O (centres undefined)', 'IC50', 1.65),
  ('COc1cc(C(=O)S[C@H](CC=C(C)C)c2cc(OC)c3c(c2OC)/C(=N/O)C=C/C3=N\O)cc(OC)c1OC', 'IC50', 0.97),
  ('CCCCCCCCCCSC(CC=C(C)C)c1cc(OC)c2c(c1OC)/C(=N/O)C=C/C2=N\O (centres undefined)', 'IC50', 25.4);

Ask: Using the record for COc1cc(C(CC=C(C)C)SC(=O)c2ccccc2Cl)c(OC)c2c1/C(=N/O)C=C/C2=N\O (centres undefined) , report its IC50.
Result: 0.87
